# Test details: Unbound AUClast in female C57BL/6J mouse plasma at 30 mg/kg, po measured after 24 hrs by UPLC-MS/MS analysis
# Type: ADME, organism-based
# Condition description: in vivo
Cut-off 3000 h/ng/mL on fAUClast: below means True, at or above means False.

>>> group_label("Cc1noc(-c2ccc(NC(=O)[C@H]3CCCC[C@@H]3C(=O)O)cn2)c1NC(=O)O[C@H](C)c1ccccc1Cl")
"True"
>>> group_label("Cc1nc(-c2onc(C)c2NC(=O)O[C@H](C)c2ccccc2Cl)ccc1NC(=O)[C@H]1CCCC[C@@H]1C(=O)O")
"False"
>>> group_label("Cc1nc(-c2onc(C)c2Nc2cncc(OC(C)C)n2)ccc1NC(=O)[C@H]1CCCC[C@@H]1C(=O)O")
"False"
>>> group_label("Cc1nc(-c2onc(C)c2NC(=O)O[C@H](C)c2ccccc2)ccc1NC(=O)[C@H]1CCCC[C@@H]1C(=O)O")
"False"
>>> group_label("Cc1nc(-c2cnn(C)c2NC(=O)O[C@H](C)c2ccccc2Cl)ccc1NC(=O)[C@H]1CCCC[C@@H]1C(=O)O")
"True"
>>> group_label("Cc1nc(-c2nnn(C)c2NC(=O)O[C@H](C)c2ccccc2Cl)ccc1NC(=O)[C@H]1CCCC[C@@H]1C(=O)O")
"True"

* * *

# Test details: Tlast in female C57BL/6J mouse plasma at 30 mg/kg, po measured after 24 hrs by UPLC-MS/MS analysis
# Type: ADME, organism-based
# Condition description: in vivo
Assay readout: Tlast (h)

>>> measured_number("Cc1nc(-c2cnn(C)c2NC(=O)O[C@H](C)c2ccccc2Cl)ccc1NC(=O)[C@H]1CCCC[C@@H]1C(=O)O")
8
>>> measured_number("Cc1nc(-c2nnn(C)c2NC(=O)O[C@H](C)c2ccccc2Cl)ccc1NC(=O)[C@H]1CCCC[C@@H]1C(=O)O")
8
>>> measured_number("Cc1nc(-c2onc(C)c2NC(=O)O[C@H](C)c2ccccc2Cl)ccc1NC(=O)[C@H]1CCCC[C@@H]1C(=O)O")
24
>>> measured_number("Cc1nc(-c2onc(C)c2NC(=O)O[C@H](C)c2ccccc2)ccc1NC(=O)[C@H]1CCCC[C@@H]1C(=O)O")
24
>>> measured_number("Cc1nc(-c2onc(C)c2Nc2cncc(OC(C)C)n2)ccc1NC(=O)[C@H]1CCCC[C@@H]1C(=O)O")
8
>>> measured_number("Cc1noc(-c2ccc(NC(=O)[C@H]3CCCC[C@@H]3C(=O)O)cn2)c1NC(=O)O[C@H](C)c1ccccc1Cl")
24

* * *

// values below are reported pIC50
# Assay system: UniProt Q9NPD5
# Sequence (Q9NPD5 whole entry): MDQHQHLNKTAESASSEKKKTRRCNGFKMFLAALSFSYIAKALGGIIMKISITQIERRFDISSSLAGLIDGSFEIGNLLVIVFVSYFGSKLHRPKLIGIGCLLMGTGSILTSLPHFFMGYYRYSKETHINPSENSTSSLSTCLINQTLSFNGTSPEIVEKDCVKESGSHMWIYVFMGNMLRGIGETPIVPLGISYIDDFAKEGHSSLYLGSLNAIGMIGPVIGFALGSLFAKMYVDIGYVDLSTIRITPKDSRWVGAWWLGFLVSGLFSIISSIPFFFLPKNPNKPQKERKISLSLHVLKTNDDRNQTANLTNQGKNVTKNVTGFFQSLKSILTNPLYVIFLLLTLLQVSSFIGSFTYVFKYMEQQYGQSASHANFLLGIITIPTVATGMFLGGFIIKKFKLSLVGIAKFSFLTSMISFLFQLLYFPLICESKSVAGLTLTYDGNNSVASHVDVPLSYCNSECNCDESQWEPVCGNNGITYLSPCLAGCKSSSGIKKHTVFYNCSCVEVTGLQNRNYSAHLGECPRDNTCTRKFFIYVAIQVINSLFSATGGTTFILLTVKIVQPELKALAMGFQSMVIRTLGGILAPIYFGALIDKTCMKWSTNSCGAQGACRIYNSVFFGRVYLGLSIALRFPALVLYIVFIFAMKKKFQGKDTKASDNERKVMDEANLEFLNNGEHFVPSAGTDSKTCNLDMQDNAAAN
# Test details: Inhibition of human OATP1B3 in HEK293 cells
pIC50: −log10 of the molar value.
Assay readout: pIC50

>>> measured_number("Cc1noc(-c2ccc(-c3ccc(C4(C(=O)O)CC4)cc3)cc2)c1NC(=O)O[C@H](C)c1ccccc1")
6.20
>>> measured_number("Cc1nc(-c2onc(C)c2NC(=O)O[C@H](C)c2ccccc2Cl)ccc1NC(=O)[C@H]1CCCC[C@@H]1C(=O)O")
5.10

* * *

# Test details: Total Cmax in female C57BL/6J mouse lung at 30 mg/kg, po measured after 24 hrs by UPLC-MS/MS analysis
# Type: ADME, organism-based
Assay readout: Cmax

>>> result("Cc1nc(-c2onc(C)c2Nc2cncc(OC(C)C)n2)ccc1NC(=O)[C@H]1CCCC[C@@H]1C(=O)O")
"10300 ng/mL"
>>> result("Cc1nc(-c2cnn(C)c2NC(=O)O[C@H](C)c2ccccc2Cl)ccc1NC(=O)[C@H]1CCCC[C@@H]1C(=O)O")
"7950 ng/mL"
>>> result("Cc1nc(-c2nnn(C)c2NC(=O)O[C@H](C)c2ccccc2Cl)ccc1NC(=O)[C@H]1CCCC[C@@H]1C(=O)O")
"2620 ng/mL"
>>> result("Cc1noc(-c2ccc(NC(=O)[C@H]3CCCC[C@@H]3C(=O)O)cn2)c1NC(=O)O[C@H](C)c1ccccc1Cl")
"4230 ng/mL"
>>> result("Cc1nc(-c2onc(C)c2NC(=O)O[C@H](C)c2ccccc2Cl)ccc1NC(=O)[C@H]1CCCC[C@@H]1C(=O)O")
"41300 ng/mL"
>>> result("Cc1nc(-c2onc(C)c2NC(=O)O[C@H](C)c2ccccc2)ccc1NC(=O)[C@H]1CCCC[C@@H]1C(=O)O")
"17700 ng/mL"

* * *

# Test details: Aqueous solubility of the compound at pH 7.4
# Type: physicochemical
# Condition description: buffer
solubility: recorded values
Assay readout: solubility (µM)

>>> measured_number("Cc1nc(-c2onc(C)c2NC(=O)O[C@H](C)c2ccccc2Cl)ccc1NC(=O)[C@H]1CCCC[C@@H]1C(=O)O")
505
>>> measured_number("Cc1cc(NC(=O)[C@H]2CCCC[C@@H]2C(=O)O)c(C)nc1-c1onc(C)c1NC(=O)O[C@H](C)c1ccccc1Cl")
509
>>> measured_number("Cc1nc(-c2cnn(C)c2NC(=O)O[C@H](C)c2ccccc2Cl)ccc1NC(=O)[C@H]1CCCC[C@@H]1C(=O)O")
295
>>> measured_number("Cc1nc(-c2snc(C)c2NC(=O)O[C@H](C)c2ccccc2Cl)ccc1NC(=O)[C@H]1CCCC[C@@H]1C(=O)O")
503
>>> measured_number("CCC[C@@H](C)OC(=O)Nc1c(C)noc1-c1ccc(NC(=O)[C@H]2CCCC[C@@H]2C(=O)O)c(C)n1")
519
>>> measured_number("Cc1nc(-c2onc(C)c2CNC(=O)O[C@H](C)c2ccccc2Cl)ccc1NC(=O)[C@H]1CCCC[C@@H]1C(=O)O")
525
>>> measured_number("Cc1nc(-c2nnn(C)c2NC(=O)O[C@H](C)c2ccccc2Cl)ccc1NC(=O)[C@H]1CCCC[C@@H]1C(=O)O")
318
>>> measured_number("Cc1nc(-c2onc(C)c2NC(=O)O[C@H](C)c2ccccc2)ccc1NC(=O)[C@H]1CCCC[C@@H]1C(=O)O")
641
>>> measured_number("Cc1noc(-c2ccc(NC(=O)[C@H]3CCCC[C@@H]3C(=O)O)cn2)c1NC(=O)O[C@H](C)c1ccccc1Cl")
458
>>> measured_number("Cc1noc(-c2ccc(NC(=O)[C@H]3CCCC[C@@H]3C(=O)O)c(F)n2)c1NC(=O)O[C@H](C)c1ccccc1Cl")
555
>>> measured_number("Cc1nc(-c2onc(C)c2Nc2cncc(OC(C)C)n2)ccc1NC(=O)[C@H]1CCCC[C@@H]1C(=O)O")
644

* * *

# Test details: Total AUClast in female C57BL/6J mouse plasma at 30 mg/kg, po measured after 24 hrs by UPLC-MS/MS analysis
# Format: ADME, organism-based
# Condition description: in vivo
Assay readout: AUClast (h/ng/mL)

>>> measured_number("Cc1nc(-c2onc(C)c2NC(=O)O[C@H](C)c2ccccc2Cl)ccc1NC(=O)[C@H]1CCCC[C@@H]1C(=O)O")
247000
>>> measured_number("Cc1nc(-c2onc(C)c2NC(=O)O[C@H](C)c2ccccc2)ccc1NC(=O)[C@H]1CCCC[C@@H]1C(=O)O")
315000
>>> measured_number("Cc1noc(-c2ccc(NC(=O)[C@H]3CCCC[C@@H]3C(=O)O)cn2)c1NC(=O)O[C@H](C)c1ccccc1Cl")
44200
>>> measured_number("Cc1nc(-c2onc(C)c2Nc2cncc(OC(C)C)n2)ccc1NC(=O)[C@H]1CCCC[C@@H]1C(=O)O")
109000
>>> measured_number("Cc1nc(-c2nnn(C)c2NC(=O)O[C@H](C)c2ccccc2Cl)ccc1NC(=O)[C@H]1CCCC[C@@H]1C(=O)O")
6720
>>> measured_number("Cc1nc(-c2cnn(C)c2NC(=O)O[C@H](C)c2ccccc2Cl)ccc1NC(=O)[C@H]1CCCC[C@@H]1C(=O)O")
80800

* * *

# Test details: Metabolic stability in human liver microsomes assessed as intrinsic clearance measured per mg of protein at 0.5 uM measured upto 45 mins in presence of NADPH regenerating system by HPLC-MS/MS analysis
# Type: ADME, Microsome
# Condition description: read-out: CLH
Assay readout: microsomal CLint at 0.5 µM (µL/min/mg)

>>> measured_number("Cc1noc(-c2ccc(NC(=O)[C@H]3CCCC[C@@H]3C(=O)O)cn2)c1NC(=O)O[C@H](C)c1ccccc1Cl")
6.3
>>> measured_number("Cc1nc(-c2onc(C)c2NC(=O)O[C@H](C)c2ccccc2)ccc1NC(=O)[C@H]1CCCC[C@@H]1C(=O)O")
2.3
>>> measured_number("Cc1nc(-c2onc(C)c2NC(=O)O[C@H](C)c2ccccc2Cl)ccc1NC(=O)[C@H]1CCCC[C@@H]1C(=O)O")
7
>>> measured_number("Cc1nc(-c2cnn(C)c2NC(=O)O[C@H](C)c2ccccc2Cl)ccc1NC(=O)[C@H]1CCCC[C@@H]1C(=O)O")
7

* * *

# Test details: Unbound Cmax in female C57BL/6J mouse plasma at 30 mg/kg, po measured after 24 hrs by UPLC-MS/MS analysis
# Format: ADME, organism-based
# Condition description: in vivo
Assay readout: fCmax (ng/mL)

>>> measured_number("Cc1nc(-c2onc(C)c2NC(=O)O[C@H](C)c2ccccc2)ccc1NC(=O)[C@H]1CCCC[C@@H]1C(=O)O")
2189
>>> measured_number("Cc1nc(-c2onc(C)c2Nc2cncc(OC(C)C)n2)ccc1NC(=O)[C@H]1CCCC[C@@H]1C(=O)O")
1726
>>> measured_number("Cc1nc(-c2onc(C)c2NC(=O)O[C@H](C)c2ccccc2Cl)ccc1NC(=O)[C@H]1CCCC[C@@H]1C(=O)O")
1479
>>> measured_number("Cc1nc(-c2nnn(C)c2NC(=O)O[C@H](C)c2ccccc2Cl)ccc1NC(=O)[C@H]1CCCC[C@@H]1C(=O)O")
251
>>> measured_number("Cc1noc(-c2ccc(NC(=O)[C@H]3CCCC[C@@H]3C(=O)O)cn2)c1NC(=O)O[C@H](C)c1ccccc1Cl")
749
>>> measured_number("Cc1nc(-c2cnn(C)c2NC(=O)O[C@H](C)c2ccccc2Cl)ccc1NC(=O)[C@H]1CCCC[C@@H]1C(=O)O")
1758
